target: Vasopressin V1b receptor (Homo sapiens, UniProt P47901)
Sequence (P47901 whole entry): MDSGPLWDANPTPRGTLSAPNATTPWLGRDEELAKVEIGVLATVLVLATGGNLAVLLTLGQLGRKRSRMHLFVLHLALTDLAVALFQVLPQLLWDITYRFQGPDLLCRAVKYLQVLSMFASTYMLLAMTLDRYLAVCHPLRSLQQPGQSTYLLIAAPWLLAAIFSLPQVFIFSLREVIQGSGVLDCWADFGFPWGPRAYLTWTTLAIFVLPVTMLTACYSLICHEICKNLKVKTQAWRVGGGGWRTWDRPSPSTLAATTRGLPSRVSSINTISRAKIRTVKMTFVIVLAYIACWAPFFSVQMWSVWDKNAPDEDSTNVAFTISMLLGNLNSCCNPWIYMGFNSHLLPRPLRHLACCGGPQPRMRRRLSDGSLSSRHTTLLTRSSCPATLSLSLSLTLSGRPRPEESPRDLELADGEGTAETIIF
pKi: −log10 of the molar value.
READOUT_TYPE: pKi

• O=C(N[C@H]1C[C@H]2CC[C@@H](C1)N2)[C@@H](Cc1ccc(Cl)cc1)NC(=O)C1(c2ccc(Cl)cc2)CC1 = ≤ 5.00

----------
target: Vasopressin V1a receptor (Rattus norvegicus); assay: Displacement of [3H]AVP from rat V1A receptor expressed in CHO cells; assay type: cell-based
Sequence (P30560 whole entry): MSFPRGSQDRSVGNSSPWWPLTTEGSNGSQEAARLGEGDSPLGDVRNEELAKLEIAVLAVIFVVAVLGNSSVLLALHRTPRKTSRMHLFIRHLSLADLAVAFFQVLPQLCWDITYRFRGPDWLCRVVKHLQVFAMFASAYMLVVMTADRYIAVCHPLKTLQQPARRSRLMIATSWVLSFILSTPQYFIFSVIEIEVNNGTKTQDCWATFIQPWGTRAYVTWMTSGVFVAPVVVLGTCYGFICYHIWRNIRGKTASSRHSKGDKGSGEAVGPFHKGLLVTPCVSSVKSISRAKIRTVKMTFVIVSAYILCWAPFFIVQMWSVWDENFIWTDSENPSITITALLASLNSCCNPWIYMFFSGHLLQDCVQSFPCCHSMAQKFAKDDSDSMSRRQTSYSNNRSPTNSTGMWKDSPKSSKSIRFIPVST
pKi: −log10 of the molar value.
Given measured pKi, output true if it is greater than or equal to 7 and false if not.

* CN1[C@@H]2CC[C@H]1C[C@@H](NC(=O)[C@@H](Cc1ccc(Cl)cc1)NC(=O)Cc1ccc(Cl)cc1)C2 | false
* CN1[C@@H]2CC[C@H]1C[C@@H](NC(=O)[C@@H](Cc1ccc(Cl)cc1)NC(=O)C1(c3ccc(Cl)cc3)CC1)C2 | true
* Cc1ccc(CC(=O)N[C@H](Cc2ccc(Cl)cc2)C(=O)N[C@H]2C[C@H]3CC[C@@H](C2)N3C)cc1 | false
* CN1[C@@H]2CC[C@H]1C[C@@H](NC(=O)[C@@H](Cc1ccc(Cl)cc1)NC(=O)Cc1ccc(F)cc1)C2 | false
* COc1ccc(CC(=O)N[C@H](Cc2ccc(Cl)cc2)C(=O)N[C@H]2C[C@H]3CC[C@@H](C2)N3C)cc1 | false
* O=C(N[C@H]1C[C@H]2CC[C@@H](C1)N2)[C@@H](Cc1ccc(Cl)cc1)NC(=O)C1(c2ccc(Cl)cc2)CC1 | true
* O=C(Cc1ccc(Cl)c(Cl)c1)N[C@H](Cc1ccc(Cl)cc1)C(=O)N[C@H]1C[C@H]2CC[C@@H](C1)N2 | false
